Values compiled from the Human Domainome abundance scans (Beltran et al. 2025).

Entries and their measured abundance fitness follow.
B1: Transcription factor SOX-11, residues 50 to 117; numbered along this chain, P35716 (parent)
chain: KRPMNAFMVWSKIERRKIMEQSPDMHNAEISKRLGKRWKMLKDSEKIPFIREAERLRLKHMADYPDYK

Variants of: B1
Test: abundance fitness (aPCA) (normalised: wild type 0, dead -1); higher = more abundant; growth selection in yeast, the domain comes from the species named
Conditions: Homo sapiens
Response field accepts a number only; no unit should be typed.

S22I :: -0.539

// abundance fitness value for R33C : 0.178

// abundance fitness value for N27K : -0.178

// abundance fitness value for N27S : 0.07

// abundance fitness value for E29P : -0.866
